- Test system: HIV-1 containing 4xAZT (D67N/K70R/T215Y/K219Q)
- test-summary: microbe, parasite or virus in culture
- Assay type: cell-based
- condition-info: Human immunodeficiency virus 1, Lymphocyte
Where a name gives a salt, the structure may show the parent alone.
Lab note: anything with EC90 below 3 µM is marked satisfied; values at 3 µM or higher are marked not satisfied.

compound	assigned-class
CC(C)OC(=O)OCOP(=O)(CO[C@H](C)Cn1cnc2c(N)ncnc21)OCOC(=O)OC(C)C [TDF, Tenofovir disoproxil fumarate]	satisfied
OC[C@@H]1CC[C@H](n2cnc3c(O)ncnc32)O1	not satisfied
Cc1cn([C@H]2C[C@H](N=[N+]=[N-])[C@@H](CO)O2)c(=O)[nH]c1=O	not satisfied
N#CC[C@H](C1CCCC1)n1cc(-c2ncnc3[nH]ccc23)cn1	satisfied
C[C@@H]1CCN(C(=O)CC#N)C[C@@H]1N(C)c1ncnc2[nH]ccc12	not satisfied

Q. Just wondering, is EC90 of Cc1cn([C@H]2C=C[C@@H](CO)O2)c(=O)[nH]c1=O [Compound D4T, 2′,3′-dideoxy-2′,3′-didehydrothymidine] below 3 µM?
A. not satisfied

Q. # strict comparison: is reported EC90 < 3 µM? input = `Nc1ccn([C@@H]2CS[C@H](CO)O2)c(=O)n1`
A. not satisfied

Q. Please determine if Nc1nc(=O)n([C@@H]2CS[C@H](CO)O2)cc1F (relative stereo) [(−)FTC] is below 3 µM in terms of EC90.
A. satisfied
